Values from paper PMC2603305

target: Kvβ2 (β-subunit of the voltage-gated potassium channel) (Rattus norvegicus, UniProt P62483); experiment: intrinsic fluorescence titration; format: binding
Sequence (P62483 39-367): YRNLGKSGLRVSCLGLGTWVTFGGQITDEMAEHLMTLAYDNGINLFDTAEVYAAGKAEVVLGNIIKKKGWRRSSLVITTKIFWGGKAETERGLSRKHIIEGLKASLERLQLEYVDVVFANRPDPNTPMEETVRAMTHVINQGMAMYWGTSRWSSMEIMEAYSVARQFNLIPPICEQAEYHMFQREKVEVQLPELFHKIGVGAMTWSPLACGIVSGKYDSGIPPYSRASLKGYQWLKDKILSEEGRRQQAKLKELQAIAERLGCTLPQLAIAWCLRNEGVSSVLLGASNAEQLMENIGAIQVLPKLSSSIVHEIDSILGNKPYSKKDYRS
reported_property: Kd (µM)
Numbers only, in µM.

Inquiry: # Kd lookup, item NC(=O)C1=CN([C@@H]2O[C@H](COP(=O)(O)OP(=O)(O)OC[C@H]3O[C@@H](n4cnc5c(N)ncnc54)[C@H](OP(=O)(O)O)[C@@H]3O)[C@@H](O)[C@H]2O)C=CC1
Reply text: 0.2
